- Assay comment: Selectivity index, ratio of TC50 for MDCK cells to IC50 for Influenza A virus H3N2 infected in MDCK cells
- Type: toxicity, cell-based
- Assay conditions: dog, read-out: Selectivity Index
Measured parameter: selectivity ratio
Form field (numeric): enter value without unit.

The reported selectivity ratio of the compound C=C(C(=O)OC)[C@@H]1CC[C@H](C)[C@H]2C(=C(C)C(=O)[C@@H]2C(O)c2cc(OC)c(OC)c(OC)c2)C1 (single isomer, unassigned) was 3

The reported selectivity ratio of the compound C=C(C(=O)OC)[C@@H]1CC[C@H](C)[C@H]2C(=C(C)C(=O)[C@@H]2C(O)c2ccc(N(C)C)cc2)C1 (single isomer, unassigned) was 1.7

The reported selectivity ratio of the compound `C=C(C(=O)OC)[C@@H]1CC[C@H](C)[C@@H]2CC(=O)C(C)=C2C1` was 3

The reported selectivity ratio of the compound C=C(C(=O)OC)[C@@H]1CC[C@H](C)[C@H]2C(=C(C)C(=O)[C@@H]2C(O)c2cccs2)C1 (single isomer, unassigned) was 7.5

The reported selectivity ratio of the compound `C=C(C(=O)OC)[C@@H]1CC[C@H](C)[C@H]2C(=C(C)C(=O)[C@@H]2[C@H](O)/C=C(\C)CCC=C(C)C)C1` was 2.2

The reported selectivity ratio of the compound C=C(C(=O)OC)[C@@H]1CC[C@H](C)[C@H]2C(=C(C)C(=O)[C@@H]2C(O)c2ccc(OC(F)(F)F)cc2)C1 (single isomer, unassigned) was 1.7

The reported selectivity ratio of the compound C=C(C(=O)OC)[C@@H]1CC[C@H](C)[C@H]2C(=C(C)C(=O)[C@@H]2C(O)c2cc(F)cc(F)c2)C1 (single isomer, unassigned) was 2.2

The reported selectivity ratio of the compound C=C(C(=O)O)[C@@H]1CC[C@H](C)[C@@H]2CC(=O)C(C)=C2C1 [PECHUELOIC ACID] was 4.3

The reported selectivity ratio of the compound C=C(C(=O)OC)[C@@H]1CC[C@H](C)[C@H]2C(=C(C)C(=O)[C@@H]2C(O)c2cc(C(F)(F)F)cc(C(F)(F)F)c2)C1 (single isomer, unassigned) was 1.7

The reported selectivity ratio of the compound C=C(C(=O)OC)[C@@H]1CC[C@H](C)[C@H]2C(=C(C)C(=O)[C@@H]2C(O)c2cc(Cl)cc(Cl)c2)C1 (single isomer, unassigned) was 1.7

The reported selectivity ratio of the compound NC(=O)c1ncn([C@@H]2O[C@H](CO)[C@@H](O)[C@H]2O)n1 [RIBAVIRIN] was 1100

The reported selectivity ratio of the compound C=C(C(=O)OC)[C@@H]1CC[C@H](C)[C@H]2C(=C(C)C(=O)[C@@H]2C(O)c2ccccc2)C1 (single isomer, unassigned) was 2.1

---

- Assay comment: Cytotoxicity against MDCK cells after 48 hrs by Reed and Muench analysis
- Format: cell-based, Canis lupus familiaris
- Assay conditions: dog, read-out: TC50
Measured parameter: CC50 at 48 h (µg/mL)
Provide only the numeric value, understood in µg/mL.

The reported CC50 at 48 h of the molecule C=C(C(=O)OC)[C@@H]1CC[C@H](C)[C@H]2C(=C(C)C(=O)[C@@H]2C(O)c2ccccc2)C1 (single isomer, unassigned) was 12.8

The reported CC50 at 48 h of the molecule C=C(C(=O)OC)[C@@H]1CC[C@H](C)[C@H]2C(=C(C)C(=O)[C@@H]2C(O)c2ccc([N+](=O)[O-])s2)C1 (single isomer, unassigned) was 4.28

The reported CC50 at 48 h of the molecule C=C(C(=O)OC)[C@@H]1CC[C@H](C)[C@H]2C(=C(C)C(=O)[C@@H]2C(O)c2ccc(OC(F)(F)F)cc2)C1 (single isomer, unassigned) was 32.1

The reported CC50 at 48 h of the molecule `C=C(C(=O)OC)[C@@H]1CC[C@H](C)[C@@H]2CC(=O)C(C)=C2C1` was 55.6

---

- Assay comment: Selectivity index, ratio of TC50 for MDCK cells to IC50 for Influenza B virus infected in MDCK cells
- Format: toxicity, cell-based
- Assay conditions: dog, read-out: Selectivity Index
Could you please report measured selectivity ratio for the items listed next?
Form field (numeric): enter value without unit.

The reported selectivity ratio of the molecule C=C(C(=O)OC)[C@@H]1CC[C@H](C)[C@H]2C(=C(C)C(=O)[C@@H]2C(O)c2ccc(F)cc2)C1 (single isomer, unassigned) was 7.5

The reported selectivity ratio of the molecule `C=C(C(=O)OC)[C@@H]1CC[C@H](C)[C@H]2C(=C(C)C(=O)[C@@H]2[C@H](O)CC)C1` was 7

The reported selectivity ratio of the molecule `C=C(C(=O)OC)[C@@H]1CC[C@H](C)[C@H]2C(=C(C)C(=O)[C@@H]2[C@@H](C)O)C1` was 7

The reported selectivity ratio of the molecule C=C(C(=O)OC)[C@@H]1CC[C@H](C)[C@H]2C(=C(C)C(=O)[C@@H]2C(O)c2ccc(OC)cc2)C1 (single isomer, unassigned) was 4.3

---

- Tested on: Influenza A virus H3N2
- Assay comment: Antiviral activity against Influenza A virus H3N2 infected in MDCK cells assessed as inhibition of virus-induced cytopathic effect after 40 hrs
- Type: functional, cell-based
Measured parameter: IC50

The reported IC50 of the molecule C=C(C(=O)OC)[C@@H]1CC[C@H](C)[C@H]2C(=C(C)C(=O)[C@@H]2C(O)c2ccc(F)cc2)C1 (single isomer, unassigned) was > 18.5 µg/mL

The reported IC50 of the molecule C=C(C(=O)OC)[C@@H]1CC[C@H](C)[C@H]2C(=C(C)C(=O)[C@@H]2C(O)c2ccc([N+](=O)[O-])s2)C1 (single isomer, unassigned) was > 2.06 µg/mL

The reported IC50 of the molecule C=C(C(=O)OC)[C@@H]1CC[C@H](C)[C@H]2C(=C(C)C(=O)[C@@H]2C(O)c2ccc(OC)cc2)C1 (single isomer, unassigned) was > 18.5 µg/mL
